# target.under.test: K-Ras G12C (Homo sapiens (Human), UniProt P01116+P62937, G12C)
# Sequence (P01116-2 other isoform, or with tags, fused parts or gaps G12C): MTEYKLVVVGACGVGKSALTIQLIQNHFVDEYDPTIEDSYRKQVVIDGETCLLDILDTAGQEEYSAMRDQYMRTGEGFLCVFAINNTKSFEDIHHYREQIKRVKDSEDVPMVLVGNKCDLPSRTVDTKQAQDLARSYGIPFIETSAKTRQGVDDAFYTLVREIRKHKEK
# Sequence (P62937 whole entry): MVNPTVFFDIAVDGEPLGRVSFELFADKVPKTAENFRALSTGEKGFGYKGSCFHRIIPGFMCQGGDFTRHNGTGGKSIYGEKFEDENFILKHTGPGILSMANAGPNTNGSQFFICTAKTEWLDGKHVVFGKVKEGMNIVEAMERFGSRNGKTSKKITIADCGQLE
# protocol.summary: Ras-Raf (BRAF RBD) disruption / FRET / MOA assay, KRAS G12C
# Format: biochemical
# condition.info: KRAS G12C; Ras-Raf disruption/FRET/MOA assay; read-out: IC50* KRAS G12C FRET data
assay.metric: IC50

Form: Entry = C=CC(=O)N1CC(N2CCN(C(=O)N(C)[C@H](C(=O)N[C@H]3Cc4nc(cs4)-c4ccc5c(c4)c(c(-c4cccnc4[C@H](C)OC)n5CC)CC(C)(C)COC(=O)[C@@H]4CCCN(N4)C3=O)C(C)C)CC2)C1 (atropisomer, axis not shown) | System = K-Ras G12C (Homo sapiens (Human), UniProt P01116+P62937, G12C) | IC50 = ____
0.01 to 0.1 µM

Moving on to the next molecule: C=CC(=O)N1C[C@@H](N(C)C(=O)N(C)[C@H](C(=O)N[C@H]2Cc3nc(cs3)-c3ccc4c(c3)c(c(-c3cccnc3[C@H](C)OC)n4CC)CC(C)(C)COC(=O)[C@@H]3CCCN(N3)C2=O)C(C)C)[C@@H](C)C1 (atropisomer, axis not shown)
0.1 to 1 µM

* * *

# target.under.test: KRAS WT (Homo sapiens (Human), UniProt P01116+P62937)
# Sequence (P01116-2 other isoform, or with tags, fused parts or gaps): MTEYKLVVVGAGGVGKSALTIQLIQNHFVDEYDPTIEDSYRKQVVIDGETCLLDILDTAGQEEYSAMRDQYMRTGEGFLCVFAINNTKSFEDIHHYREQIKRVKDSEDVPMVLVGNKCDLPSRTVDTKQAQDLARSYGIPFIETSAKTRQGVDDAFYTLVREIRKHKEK
# Sequence (P62937 whole entry): as the sequence (P62937 whole entry) above
# protocol.summary: Ras-Raf (BRAF RBD) disruption / FRET / MOA assay, KRAS WT
# Format: biochemical
# condition.info: read-out: IC50* KRAS WT FRET data
assay.metric: IC50

For the compound C=CC(=O)N1CC(OC[C@H](C(=O)N[C@H]2Cc3cccc(c3)-c3ccc4c(c3)c(c(-c3cccnc3[C@H](C)OC)n4CC(F)(F)F)CC(C)(C)COC(=O)[C@@H]3CCCN(N3)C2=O)C(C)C)C1 (atropisomer, axis not shown) [Example A344] , what IC50 is on record?
1 to 10 µM

Same question for CCn1c(-c2cccnc2COC)c2c3cc(ccc31)-c1cc(O)cc(c1)C[C@H](NC(=O)[C@H](C(C)C)N(C)C(=O)[C@H]1CCN(C(=O)/C=C/CN3CCOCC3)C1)C(=O)N1CCC[C@H](N1)C(=O)OCC(C)(C)C2 [Example A134] please.
1 to 10 µM

Now try CO[C@@H](C)c1ncccc1-c1c2c3cc(ccc3n1CC(F)(F)F)-c1csc(n1)C[C@H](NC(=O)CCOC1CN(C(=O)C#CC(C)(C)N(C)C)C1)C(=O)N1CCC[C@H](N1)C(=O)OCC(C)(C)C2 (atropisomer, axis not shown) [Example A380] .
1 to 10 µM

Also need CO[C@@H](C)c1ncccc1-c1c2c3cc(ccc3n1CC(F)(F)F)N1CCO[C@@H](C[C@H](NC(=O)[C@H](C(C)C)N3CC[C@@]4(CCN(C(=O)C#CC(C)(C)N(C)C)C4)C3=O)C(=O)N3CCC[C@H](N3)C(=O)OCC(C)(C)C2)C1 (atropisomer, axis not shown) [Example A628] , thanks.
> 10 µM

* * *

# target.under.test: KRAS G12S (Homo sapiens (Human), UniProt P01116+P62937, G12S)
# Sequence (P01116-2 other isoform, or with tags, fused parts or gaps G12S): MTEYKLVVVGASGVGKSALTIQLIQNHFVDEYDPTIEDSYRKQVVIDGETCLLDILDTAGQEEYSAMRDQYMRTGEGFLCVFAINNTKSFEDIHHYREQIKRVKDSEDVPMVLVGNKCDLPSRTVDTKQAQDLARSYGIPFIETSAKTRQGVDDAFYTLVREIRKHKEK
# Sequence (P62937 whole entry): as the sequence (P62937 whole entry) above
# protocol.summary: Ras-Raf (BRAF RBD) disruption / FRET / MOA assay, KRAS G12S
# Format: biochemical
# condition.info: Ras-Raf disruption/FRET/MOA assay; class symbols; read-out: KRAS G12S FRET data IC50
pIC50: −log10 of the molar value.
assay.metric: pIC50

pIC50 for C=CC(=O)N1CC[C@H](C(=O)N(C)[C@H](C(=O)N[C@H]2Cc3nc(ns3)-c3ccc4c(c3)c(c(-c3cccnc3[C@H](C)OC)n4CC)CC(C)(C)COC(=O)[C@@H]3CCCN(N3)C2=O)C(C)C)C1 (atropisomer, axis not shown) ?
5.00 to 6.00

Next up: CCn1c(-c2cccnc2[C@H](C)OC)c2c3cc(ccc31)-c1csc(n1)C[C@H](NC(=O)CN1CC[C@@]3(CCN(C(=O)C#CC(C)(C)N4CCC4)C3)C1)C(=O)N1CCC[C@H](N1)C(=O)OCC(C)(C)C2 (atropisomer, axis not shown)
5.00 to 6.00

Note, next up: C=CC(=O)N1CC[C@H](C(=O)N(C)[C@H](C(=O)N[C@H]2Cc3cc(O)cc(c3)-c3ccc4c(c3)c(c(-c3cccnc3[C@@H]3CCCO3)n4CC)CC(C)(C)COC(=O)[C@@H]3CCCN(N3)C2=O)C(C)C)C1 (atropisomer, axis not shown)
6.00 to 7.00

Quick one: C=CC(=O)N(C)CCN1CCN(C(=O)N(C)[C@H](C(=O)N[C@H]2Cc3cccc(c3)-c3ccc4c(c3)c(c(-c3cccnc3[C@H](C)OC)n4CC)CC(C)(C)COC(=O)[C@@H]3CCCN(N3)C2=O)C(C)C)CC1 (atropisomer, axis not shown)
6.00 to 7.00

* * *

# target.under.test: KRAS G12S (Homo sapiens (Human), UniProt P01116+P62937, G12S)
# protocol.summary: Ras-Raf (BRAF RBD) disruption / FRET / MOA assay, KRAS G12S
# Assay type: biochemical
# condition.info: Ras-Raf disruption/FRET/MOA assay; class symbols; read-out: KRAS G12S FRET data IC50
assay.metric: IC50

Quick check: IC50 of C=CC(=O)N1C[C@H](C)[C@H](C(=O)N(C)[C@H](C(=O)N[C@H]2Cc3cc(O)cc(c3)-c3ccc4c(c3)c(c(-c3cccnc3COC)n4CC)CC(C)(C)COC(=O)[C@@H]3CCCN(N3)C2=O)C(C)C)C1 ?
0.1 to 1 µM

Moving on to the next molecule: C=CC(=O)N1CC[C@H](C(=O)N(C)C(C(=O)N[C@H]2C[C@H]3CN(CCO3)c3ccc4c(c3)c(c(-c3cccnc3[C@H](C)OC)n4CC)CC(C)(C)COC(=O)[C@@H]3CCCN(N3)C2=O)C(C)C)C1 (mixture of isomers)
1 to 10 µM

What would you report for CCn1c(-c2cccnc2[C@H](C)OC)c2c3cc(ccc31)-c1csc(n1)C[C@H](NC(=O)CCO[C@@H]1CCN(C(=O)C#CC(C)(C)N3CCC3)C1)C(=O)N1CCC[C@H](N1)C(=O)OCC(C)(C)C2 (atropisomer, axis not shown) ?
1 to 10 µM

Okay, and CC#CC(=O)N1CCC(C(=O)N(C)[C@H](C(=O)N[C@H]2Cc3nc(cs3)-c3ccc4c(c3)c(c(-c3cccnc3[C@H](C)OC)n4CC)CC(C)(C)COC(=O)[C@@H]3CCCN(N3)C2=O)C(C)C)C1 (atropisomer, axis not shown) ?
1 to 10 µM

* * *

# target.under.test: KRAS G12S (Homo sapiens (Human), UniProt P01116+P62937, G12S)
# protocol.summary: Ras-Raf (BRAF RBD) disruption / FRET / MOA assay, KRAS G12S
# Type: biochemical
# condition.info: Ras-Raf disruption/FRET/MOA assay; class symbols; read-out: KRAS G12S FRET data IC50
Please respond with reported IC50 for every item in the list.

I'd like to know its IC50. The molecule in question is CCn1c(-c2cccnc2[C@H](C)OC)c2c3cc(ccc31)-c1csc(n1)C[C@H](NC(=O)[C@H](C)N(C)C(=O)[C@H]1CCN(C(=O)C#CC(C)(C)N3CCC3)C1)C(=O)N1CCC[C@H](N1)C(=O)OCC(C)(C)C2 (atropisomer, axis not shown)
1000 to 10000 nM

Moving on to the next molecule: C=CC(=O)N1CC[C@H](C(=O)N(C)[C@H](C(=O)N[C@H]2Cc3cccc(c3)-c3ccc4c(c3)c(c(-c3cnccc3[C@H](C)OC)n4CC)CC(C)(C)COC(=O)[C@@H]3CCCN(N3)C2=O)C(C)C)C1 (single isomer, unassigned) [Example A115]
1000 to 10000 nM

Note, next up: C=CC(=O)N1CC(F)(C(=O)N(C)[C@H](C(=O)N[C@H]2Cc3cccc(c3)-c3ccc4c(c3)c(c(-c3cccnc3[C@H](C)OC)n4CC)CC(C)(C)COC(=O)[C@@H]3CCCN(N3)C2=O)C(C)C)C1 (atropisomer, axis not shown)
100 to 1000 nM

How about C=CC(=O)N1CCOC2(CCN(C(=O)N(C)[C@H](C(=O)N[C@H]3Cc4cc(C(F)F)cc(n4)-c4ccc5c(c4)c(c(-c4cccnc4[C@H](C)OC)n5CC(F)(F)F)CC(C)(C)COC(=O)[C@@H]4CCCN(N4)C3=O)C(C)C)CC2)C1 (atropisomer, axis not shown) ?
100 to 1000 nM

Entry to check: C=CC(=O)N(C)[C@H]1CCN(C(=O)N(C)[C@H](C(=O)N[C@H]2Cc3nc(cs3)-c3ccc4c(c3)c(c(-c3cccnc3[C@H](C)OC)n4CC)CC(C)(C)COC(=O)[C@@H]3CCCN(N3)C2=O)C(C)C)C1 (atropisomer, axis not shown)
100 to 1000 nM

Follow-up entry: C=CC(=O)N1CC[C@H](C(=O)N(C)[C@H](C(=O)N[C@H]2Cc3cccc(c3)-c3ccc4c(c3)c(c(-c3cc(C5=CCN(C)CC5)cnc3[C@H](C)OC)n4CC)CC(C)(C)COC(=O)[C@@H]3CCCN(N3)C2=O)C(C)C)C1 (atropisomer, axis not shown) [Example A513]
1000 to 10000 nM

Same for CCn1c(-c2cccnc2[C@H](C)OC)c2c3cc(ccc31)-c1cccc(c1)C[C@H](NC(=O)[C@H](C(C)C)N1CO[C@@]3(CCN(C(=O)C#CC(C)(C)N4CCC4)C3)C1=O)C(=O)N1CCC[C@H](N1)C(=O)OCC(C)(C)C2 (atropisomer, axis not shown)
1000 to 10000 nM
